The entries below come with measured cAMP EC50 values attached.
Target system: hMC3-R (human) (UniProt P41968)
Sequence (P41968 whole entry): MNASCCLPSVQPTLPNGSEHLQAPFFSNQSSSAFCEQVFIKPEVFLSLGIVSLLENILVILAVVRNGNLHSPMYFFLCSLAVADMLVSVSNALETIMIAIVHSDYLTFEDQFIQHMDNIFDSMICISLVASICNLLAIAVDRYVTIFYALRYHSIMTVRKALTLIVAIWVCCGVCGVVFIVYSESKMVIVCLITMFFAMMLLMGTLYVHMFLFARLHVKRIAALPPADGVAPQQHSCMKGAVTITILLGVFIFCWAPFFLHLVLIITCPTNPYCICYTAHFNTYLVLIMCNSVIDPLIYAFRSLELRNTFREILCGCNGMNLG
Method: cell-based or functional assay
Bridge positions count the residues as written; N and C are the ends. Square brackets hold non-standard residues; d marks the D form. Ends that are not written are not given here. Bta = N[C@@H](Cc1csc2ccccc12)C(=O)O; hArg = N=C(N)NCCCC[C@H](N)C(=O)O; Nle = CCCC[C@H](N)C(=O)O; Orn = NCCC[C@H](N)C(=O)O; βAla = NCCC(=O)O
Your answer should be a plain number; it is taken to be in nM.

Example cases with answers are listed next.
1. E[dA]H[dF]RW[Orn]-NH2 (lactam 1-7 (inferred); also: residues 1-2 joined in a hydantoin ring (C(O))) [c[Hydantoin(C(O)-(Glu-D-Ala))-His-D-Phe-Arg-Trp-Orn]-NH2]
39.2
2. Ac-[Nle]D[dA]H[dF]R[Bta]K-NH2 (lactam 2-8; SMILES CCCC[C@H](NC(C)=O)C(=O)N[C@H]1CC(=O)NCCCC[C@@H](C(N)=O)NC(=O)[C@H](Cc2csc3ccccc23)NC(=O)[C@H](CCCNC(=N)N)NC(=O)[C@@H](Cc2ccccc2)NC(=O)[C@H](Cc2c[nH]cn2)NC(=O)[C@@H](C)NC1=O) [Ac-Nle-c(Asp-D-Ala-His-D-Phe-Arg-Bal-Lys)-NH2]
3.22
3. [dF]CH[d(Et)Tyr][hArg]W[βAla][dC]T-NH2 (disulfide 2-8) [D-Phe-c(Cys-His-D-(Et)Tyr-hArg-Trp-β-Ala-D-Cys)-Thr-NH2]
2.71

Next:
Query: Specify measured cAMP EC50 for GCEH[dF]RWC-NH2 (disulfide 2-8; also: residues 1-2 joined in a hydantoin ring (C(O))) [c[Hydantoin(C(O)-(Gly-Cys))-Glu-His-D-Phe-Arg-Trp-Cys]-NH2] .
Reply: 21.8
